# measurement.protocol: Selectivity index, ratio of CC50 for cytotoxicity in human Huh7.5 cells assessed as reduction in cell viability incubated for 96 hrs by MTT assay to EC50 for antiviral activity against HCV J6/JFH/JC1 infected in human Huh7.5 cells incubated for 72 hrs by In-Cell Western assay
# Format: toxicity, cell-based
# condition.info: read-out: Ratio CC50/EC50
Please note: selectivity ratio exactly at 20 is Not met. Only values below 20 get Met.

Example cases with answers are listed next.
[Q] Report whether reported selectivity ratio is lower than 20 (strictly) for CCN1CCCC1CNc1ccc(C#N)c(CN2CCN(c3ccc(Cl)cc3)CC2)c1 (centres undefined)
[A] Met

[Q] Report whether reported selectivity ratio is lower than 20 (strictly) for N#Cc1ccc(NCCN2CCOCC2)cc1CN1CCN(c2ccc(Cl)cc2)CC1
[A] Met

[Q] Report whether reported selectivity ratio is lower than 20 (strictly) for CN(C)CCN(C)c1ccc(C#N)c(CN2CCN(c3ccc(Cl)nc3)CC2)c1
[A] Not met

[Q] Report whether reported selectivity ratio is lower than 20 (strictly) for CC(C)OC(=O)[C@H](C)N[P@](=O)(OC[C@H]1O[C@@H](n2ccc(=O)[nH]c2=O)[C@](C)(F)[C@@H]1O)Oc1ccccc1
[A] Not met

Next:
[Q] Report whether reported selectivity ratio is lower than 20 (strictly) for CN1CCCN(c2ccc(C#N)c(CN3CCN(c4ccc(Cl)cc4)CC3)c2)CC1
[A] Not met

[Q] Report whether reported selectivity ratio is lower than 20 (strictly) for CN(C)CCN(C)c1ccc(C(N)=O)c(CN2CCN(c3ccc(Cl)cc3)CC2)c1
[A] Met

[Q] Report whether reported selectivity ratio is lower than 20 (strictly) for CN(C)CCN(C)c1ccc(C#N)c(CN2CCN(c3ccc(Cl)cc3[N+](=O)[O-])CC2)c1
[A] Not met
